Structures can show the parent of a compound that is named as a salt.
Could you please report measured melting point for the items listed next?

Problem: Any idea what melting point was measured for C=C(C)C1CCC2(C)CCC3(C)C(CCC4C5(C)CCC(OC(=O)CCC(=O)O)C(C)(C)C5CCC43C)C12 (centres unmarked) (as salt: succinate) [Compound 5, Lupeol succinate] ?
Result: 221 to 223 °C

Problem: Any idea what melting point was measured for C=C(C)C1CCC2(C)CCC3(C)C(CCC4C5(C)CCC(OC(C)=O)C(C)(C)C5CCC43C)C12 (centres unmarked) [Compound 2, Lupeol acetate] ?
Result: 216 to 219 °C

Problem: Any idea what melting point was measured for C=C(C)[C@@H]1CC[C@]2(C)CC[C@]3(C)[C@H](CC[C@@H]4[C@@]5(C)CC[C@H](OC(=O)c6ccncc6)C(C)(C)[C@@H]5CC[C@]43C)[C@@H]12 [Compound 4, Lupeol isonicotinate] ?
Result: 179 to 183 °C

Problem: Any idea what melting point was measured for C=C(C)C1CCC2(C)CCC3(C)C(CCC4C5(C)CCC(OC(=O)CC)C(C)(C)C5CCC43C)C12 (centres unmarked) [Compound 3, Lupeol propionate] ?
Result: 220 to 222 °C

Problem: Any idea what melting point was measured for C=C(C)[C@@H]1CC[C@]2(C)CC[C@]3(C)[C@H](CC[C@@H]4[C@@]5(C)CC[C@H](OC(=O)c6ccccc6OC(C)=O)C(C)(C)[C@@H]5CC[C@]43C)[C@@H]12 [Compound 6, Lupeol acetylsalicylate] ?
Result: 226 to 229 °C
